# credit: patent US7982043B2

biological target: recombinant cytoplasmic domain of HER-2 (Homo sapiens); construct: In a cell-free autophosphorylation assay using the recombinant cytoplasmic domain of HER-2; experiment: Cell-free autophosphorylation kinase assay (ELISA), HER-2; assay type: biochemical
Sequence (P04626 676-1255 limits assumed): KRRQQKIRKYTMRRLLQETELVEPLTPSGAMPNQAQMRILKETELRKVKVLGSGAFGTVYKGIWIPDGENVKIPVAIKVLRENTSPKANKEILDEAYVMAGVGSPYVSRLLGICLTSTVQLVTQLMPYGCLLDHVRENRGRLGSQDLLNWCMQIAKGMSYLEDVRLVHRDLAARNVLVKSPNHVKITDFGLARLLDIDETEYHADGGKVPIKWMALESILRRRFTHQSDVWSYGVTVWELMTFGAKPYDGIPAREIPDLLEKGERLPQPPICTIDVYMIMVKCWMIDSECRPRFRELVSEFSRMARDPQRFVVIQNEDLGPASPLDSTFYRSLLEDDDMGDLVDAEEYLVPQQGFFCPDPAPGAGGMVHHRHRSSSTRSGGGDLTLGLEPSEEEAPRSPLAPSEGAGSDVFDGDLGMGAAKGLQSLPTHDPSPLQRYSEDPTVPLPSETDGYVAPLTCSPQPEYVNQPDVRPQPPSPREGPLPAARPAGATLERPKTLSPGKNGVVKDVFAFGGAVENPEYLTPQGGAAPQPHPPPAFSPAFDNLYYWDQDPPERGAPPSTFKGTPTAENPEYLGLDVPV
Quantity Name: inhibition of the HER-2 enzyme (in words)

cpd_smiles=CCOc1cc2ncc(C#N)c(Nc3ccc(OCc4cccc(F)c4)c(Cl)c3)c2cc1NC(=O)/C=C/CN(C)C tested_system="recombinant cytoplasmic domain of HER-2 (Homo sapiens)" reading="potent inhibitors"
cpd_smiles=CCOc1cc2ncc(C#N)c(Nc3ccc(OCc4ccccc4)c(Cl)c3)c2cc1NC(=O)/C=C/CN(C)C tested_system="recombinant cytoplasmic domain of HER-2 (Homo sapiens)" reading="potent inhibitors"
cpd_smiles=CCOc1cc2ncc(C#N)c(Nc3ccc(OCc4ccccn4)c(Cl)c3)c2cc1NC(=O)/C=C/CN(C)C tested_system="recombinant cytoplasmic domain of HER-2 (Homo sapiens)" reading="potent inhibitors"

----------
Below, each of the compounds is paired with its reported IC50 value.
biological target: Her-2 (Homo sapiens); construct: For Her-2 and EGFR phosphorylation assays, cells (BT474 and A431, respectively) were incubated with various concentrations of compound; endogenous in cells; host or cells: BT474; assay: Her-2 receptor phosphorylation in BT474 cells (immunoblot); type: cell-based; conditions: Her-2 phosphorylation, 3 hours at 37° C., immunoblot; read-out: IC50 receptor phosphorylation BT474 (converted)
Sequence (P04626 23-1255): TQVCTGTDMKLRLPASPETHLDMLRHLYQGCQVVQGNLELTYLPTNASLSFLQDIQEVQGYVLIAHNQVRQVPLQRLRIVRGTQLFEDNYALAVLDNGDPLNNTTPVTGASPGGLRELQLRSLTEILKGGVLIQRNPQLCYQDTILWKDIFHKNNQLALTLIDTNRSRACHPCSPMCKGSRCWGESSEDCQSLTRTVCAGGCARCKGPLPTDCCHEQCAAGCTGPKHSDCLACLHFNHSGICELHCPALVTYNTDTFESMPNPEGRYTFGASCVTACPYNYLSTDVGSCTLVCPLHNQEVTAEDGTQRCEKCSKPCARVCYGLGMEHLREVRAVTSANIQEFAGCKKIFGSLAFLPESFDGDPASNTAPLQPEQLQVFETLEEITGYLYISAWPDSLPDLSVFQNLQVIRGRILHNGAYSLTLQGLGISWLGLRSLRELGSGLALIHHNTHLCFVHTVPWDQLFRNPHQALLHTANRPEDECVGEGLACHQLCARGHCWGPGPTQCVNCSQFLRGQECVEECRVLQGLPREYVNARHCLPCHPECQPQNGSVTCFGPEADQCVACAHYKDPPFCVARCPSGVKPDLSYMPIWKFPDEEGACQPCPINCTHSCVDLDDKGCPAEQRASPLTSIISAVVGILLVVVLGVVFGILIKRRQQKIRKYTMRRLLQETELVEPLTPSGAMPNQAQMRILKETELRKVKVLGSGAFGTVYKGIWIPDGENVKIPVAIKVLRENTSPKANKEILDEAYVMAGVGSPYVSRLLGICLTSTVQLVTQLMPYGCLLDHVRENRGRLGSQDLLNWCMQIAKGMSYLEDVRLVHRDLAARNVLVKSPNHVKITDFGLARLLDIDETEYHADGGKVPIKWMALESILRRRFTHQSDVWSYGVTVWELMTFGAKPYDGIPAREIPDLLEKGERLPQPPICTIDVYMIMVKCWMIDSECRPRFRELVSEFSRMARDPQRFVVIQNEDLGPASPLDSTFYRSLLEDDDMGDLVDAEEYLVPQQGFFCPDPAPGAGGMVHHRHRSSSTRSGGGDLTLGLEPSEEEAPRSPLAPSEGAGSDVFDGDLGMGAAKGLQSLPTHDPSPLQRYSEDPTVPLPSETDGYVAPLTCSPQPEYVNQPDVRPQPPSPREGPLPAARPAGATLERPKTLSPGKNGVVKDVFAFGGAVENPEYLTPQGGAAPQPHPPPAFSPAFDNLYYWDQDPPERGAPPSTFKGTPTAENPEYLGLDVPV
Quantity Name: IC50 (nM)

compound="CCOc1cc2ncc(C#N)c(Nc3ccc(OCc4cccs4)c(Cl)c3)c2cc1NC(=O)/C=C/CN(C)C [Example 76]" units_text=nM value_operator== reading=2.67
compound="COc1cc2ncc(C#N)c(Nc3ccc(Sc4nccn4C)c(Cl)c3)c2cc1NC(=O)/C=C/CN(C)C [Example 37]" units_text=nM value_operator=< reading=1820
compound="CCOc1cc2ncc(C#N)c(Nc3ccc(OCc4cccc(F)c4)c(Cl)c3)c2cc1NC(=O)/C=C/CN(C)C [Example 3]" units_text=nM value_operator== reading=22.6
compound="CCOc1cc2ncc(C#N)c(Nc3ccc(OCc4ccccc4)c(Cl)c3)c2cc1NC(=O)/C=C/CN(C)C [Example 1]" units_text=nM value_operator== reading=13.5

----------
tested on: SW620 cells; experiment: Cell proliferation assay (SRB), SW620; assay type: cell-based; details: Homo sapiens, SW-620, 48 h; EGFR −, Her-2 −; 2 days, SRB; read-out: CELL IC50 SW620
Below, each of the compounds is paired with its reported IC50 value.
Quantity Name: IC50

compound="CCOc1cc2ncc(C#N)c(Nc3ccc(Cn4ccnc4)c(Cl)c3)c2cc1NC(=O)/C=C/CN(C)C [Example 62]" reading="3.8 µg/mL"
compound="CCOc1cc2ncc(C#N)c(Nc3ccc(Oc4ccncc4)c(Cl)c3)c2cc1NC(=O)/C=C/CN(C)C [Example 56]" reading="> 5 µg/mL"
compound="CCOc1cc2ncc(C#N)c(Nc3ccc(Sc4nc(C)cc(C)n4)c(Cl)c3)c2cc1[N+](=O)[O-] [Example 74]" reading="> 5 µg/mL"
compound="CCOc1cc2ncc(C#N)c(Nc3ccc(Nc4nnc(C(F)(F)F)s4)c(Cl)c3)c2cc1NC(=O)/C=C/CN(C)C [Example 53]" reading="1.05 µg/mL"

----------
biological target: mouse fibroblast cell line transfected with the HER-2 oncogene (3T3/neu) (UniProt P04626, cells depend on it, species not given); experiment: Cell proliferation assay (SRB), 3T3/neu; assay type: cell-based; conditions: EGFR −, Her-2 +++; 2 days, SRB; read-out: CELL IC50 3T3/NEU (converted)
Simple rule here: GI50 less than 800 nM is satisfied, otherwise not satisfied.

compound="CCOc1cc2ncc(C#N)c(Nc3ccc4cn[nH]c4c3)c2cc1OC [Example 31]" discrete_label=satisfied
compound="CCOc1cc2ncc(C#N)c(Nc3ccc4c(c3)CCC4=O)c2cc1OCC [Example 28]" discrete_label=satisfied
compound="CCOc1cc2ncc(C#N)c(Nc3ccc(Oc4ccncc4)c(Cl)c3)c2cc1N [Example 55]" discrete_label="not satisfied"
compound="CCOc1cc2ncc(C#N)c(Nc3ccc4[nH]c(=O)oc(=O)c4c3)c2cc1OCC [Example 27]" discrete_label="not satisfied"
compound="COc1cc2ncc(C#N)c(Nc3ccc(Sc4nccs4)c(Cl)c3)c2cc1N [Example 39]" discrete_label=satisfied
compound="COc1cc2ncc(C#N)c(Nc3ccc(Sc4nccn4C)c(Cl)c3)c2cc1[N+](=O)[O-] [Example 35]" discrete_label="not satisfied"
compound="CCOc1cc2ncc(C#N)c(Nc3ccc(Oc4ccncc4)c(Cl)c3)c2cc1[N+](=O)[O-] [Example 54]" discrete_label="not satisfied"
compound="CCOc1cc2ncc(C#N)c(Nc3ccc(OCc4cccc(F)c4)c(Cl)c3)c2cc1NC(=O)/C=C/CN(C)C [Example 3]" discrete_label=satisfied
